src = ChEMBL document CHEMBL1143748

Please provide measured IC50 for the entries that follow.
- measured target: Prostaglandin G/H synthase 1 (Ovis aries, UniProt P05979)
- Sequence (P05979 whole entry): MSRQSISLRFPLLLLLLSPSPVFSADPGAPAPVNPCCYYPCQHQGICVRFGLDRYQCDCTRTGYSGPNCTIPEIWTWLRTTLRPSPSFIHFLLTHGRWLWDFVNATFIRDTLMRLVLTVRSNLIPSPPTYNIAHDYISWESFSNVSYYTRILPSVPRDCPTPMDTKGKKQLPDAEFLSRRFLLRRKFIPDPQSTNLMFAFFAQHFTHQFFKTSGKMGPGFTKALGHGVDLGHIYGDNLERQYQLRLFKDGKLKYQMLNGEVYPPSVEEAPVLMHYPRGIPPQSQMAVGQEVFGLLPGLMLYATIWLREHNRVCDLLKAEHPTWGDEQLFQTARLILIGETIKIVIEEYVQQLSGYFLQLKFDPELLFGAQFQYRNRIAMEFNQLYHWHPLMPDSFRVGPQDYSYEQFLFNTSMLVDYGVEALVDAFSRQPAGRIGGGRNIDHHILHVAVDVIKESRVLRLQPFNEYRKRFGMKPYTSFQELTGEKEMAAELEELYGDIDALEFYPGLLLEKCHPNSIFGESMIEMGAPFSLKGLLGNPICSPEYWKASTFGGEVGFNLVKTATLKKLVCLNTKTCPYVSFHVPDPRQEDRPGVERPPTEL
Give bare numbers, in µM.

{"molecule": "COc1ccc2c(c1)CCC(c1ccc(OC)c(OC)c1)=C2", "u": "µM", "IC50": 0.38}
{"molecule": "Oc1ccc(/C=C/c2cc(O)cc(O)c2)cc1 [RESVERATROL]", "u": "µM", "IC50": 0.535}
{"molecule": "COc1ccc(C2=Cc3ccccc3CC2)cc1OC", "u": "µM", "IC50": 61.1}

# evaluate next
Item `C1=C(c2ccc3c(c2)OCO3)Cc2ccccc21` with Prostaglandin G/H synthase 1 (Ovis aries, UniProt P05979) - IC50?
12.8

====

- measured target: Prostaglandin G/H synthase 2 (Homo sapiens)
- Sequence (P35354 whole entry): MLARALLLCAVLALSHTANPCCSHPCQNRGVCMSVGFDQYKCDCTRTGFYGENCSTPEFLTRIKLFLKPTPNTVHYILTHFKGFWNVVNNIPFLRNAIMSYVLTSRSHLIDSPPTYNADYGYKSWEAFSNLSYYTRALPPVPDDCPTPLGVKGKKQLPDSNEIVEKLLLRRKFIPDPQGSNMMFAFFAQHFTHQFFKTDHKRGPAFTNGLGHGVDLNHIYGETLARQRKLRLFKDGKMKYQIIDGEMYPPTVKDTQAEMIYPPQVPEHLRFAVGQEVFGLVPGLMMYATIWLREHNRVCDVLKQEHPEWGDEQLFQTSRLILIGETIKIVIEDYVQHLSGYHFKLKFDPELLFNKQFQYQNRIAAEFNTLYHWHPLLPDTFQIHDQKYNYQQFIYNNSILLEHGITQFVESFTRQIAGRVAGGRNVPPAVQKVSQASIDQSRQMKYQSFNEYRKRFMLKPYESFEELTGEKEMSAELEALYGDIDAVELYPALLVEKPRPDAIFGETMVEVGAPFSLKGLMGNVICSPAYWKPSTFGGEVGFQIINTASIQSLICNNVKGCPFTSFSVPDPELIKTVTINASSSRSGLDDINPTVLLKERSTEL
- experiment notes: Inhibition of human recombinant COX2 by measuring PGE2
Consider the following compounds; for each one, report its IC50.

Example entries begin here.
{"chemical string": "C1=C(c2ccc3c(c2)OCO3)CCc2ccccc21", "IC50": "> 100 µM"}
{"chemical string": "COc1ccc2c(c1)CCC(c1ccc(OC)c(OC)c1OC)=C2", "IC50": "> 100 µM"}
{"chemical string": "C1=C(c2ccc3c(c2)OCO3)Cc2ccccc21", "IC50": "> 100 µM"}

Return IC50 measured with Prostaglandin G/H synthase 2 (Homo sapiens) given this compound: `COc1ccc(C2=Cc3ccccc3CC2)cc1OC`
> 100 µM

====

- experiment notes: Selectivity for ovine COX1 over human recombinant COX2
measure: Ratio IC50

{"chemical string": "COc1ccc2c(c1)CCC(c1ccc(OC)c(OC)c1OC)=C2", "Ratio IC50": "> 6670"}
{"chemical string": "COc1ccc(C2=Cc3ccccc3CC2)cc1OC", "Ratio IC50": "> 1.63"}

// switching to the query compound
Looking for the measured Ratio IC50 of `C1=C(c2ccc3c(c2)OCO3)Cc2ccccc21` , can you help?
> 7.8
